All values here come from patent US20200270125A1.

Target: T1, human MASP-3 CCP1-CCP2-SP fragment (human)
T1 chain: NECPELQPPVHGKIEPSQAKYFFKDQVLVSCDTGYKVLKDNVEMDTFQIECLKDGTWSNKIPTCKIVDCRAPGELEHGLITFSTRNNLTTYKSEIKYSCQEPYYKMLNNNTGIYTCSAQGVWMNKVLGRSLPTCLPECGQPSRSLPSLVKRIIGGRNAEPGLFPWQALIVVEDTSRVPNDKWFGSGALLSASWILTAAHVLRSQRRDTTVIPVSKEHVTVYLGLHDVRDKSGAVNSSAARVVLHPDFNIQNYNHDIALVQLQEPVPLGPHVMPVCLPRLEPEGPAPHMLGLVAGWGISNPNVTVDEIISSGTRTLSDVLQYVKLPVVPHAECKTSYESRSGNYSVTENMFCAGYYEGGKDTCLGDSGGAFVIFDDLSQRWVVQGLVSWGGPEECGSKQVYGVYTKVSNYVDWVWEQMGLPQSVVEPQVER
Assay: cell-based or functional assay
In this section we review reported inhibition of MASP-3-dependent fluorogenic tripeptide (BOC-V-P-R-AMC) cleavage values for a set of binders.
Answer in nM, number only, no unit symbol.

Ask: Consider the binder shown here: MASP-3 mAb 4D5 (mouse-human chimeric IgG4) (antibody, V domains shown) VH: QVQLKQSGPELVKPGASVKLSCKASGYTFTTDDINWVKQRPGQGLEWIGWIYPRDDRTKYNDKFKDKATLTVDTSSNTAYMDLHSLTSEDSAVYFCSSLEDTYWGQGTLVAVSS VL: DIVMTQSPSSLAVSAGEKVTMTCKSSQSLLNSRTRKNYLAWYQQKPGQSPKLLIYWASTRESGVPDRFTGSGSGTDFSLTISSVQAEDLAVYYCKQSYNLYTFGGGTKLEIKR What is its recorded inhibition of MASP-3-dependent fluorogenic tripeptide (BOC-V-P-R-AMC) cleavage?
Result: 27.5

Ask: // repeat for MASP-3 mAb 1F3 (mouse-human chimeric IgG4) (antibody, V domains shown) VH: QVQLKQSGPELVKPGASVKLSCKASGYTFTSNDINWVKQRPGQGLEWIGWIYPRDGSIKYNEKFTDKATLTVDVSSSTAYMELHSLTSEDSAVYFCSGVEDSYWGQGTLVTVSS VL: DIVMTQSPSSLAVSAGERVTMSCKSSQSLLISRTRKNYLSWYQQKPGQSPKLLIYWASTRESGVPDRFTGSGSGTDFTLTISSVQAEDLAVYYCKQSYNLYTFGGGTKLEIKR and report
Result: 33

Ask: // same read-out, input: MASP-3 mAb 13B1 (mouse-human chimeric IgG4) (antibody, V domains shown, also called mAb M3-1; M3-1) VH: QVQLKQSGAELMKPGASVKLSCKATGYTFTGKWIEWVKQRPGHGLEWIGEILPGTGSTNYNEKFKGKATFTADSSSNTAYMQLSSLTTEDSAMYYCLRSEDVWGTGTTVTVSS VL: DIVMTQSPSSLAVSAGEKVTMSCKSSQSLLNSRTRKNYLAWYQQKPGQSPKLLIYWASTRESGVPDRFTGSGSGTDFTLTISSVQAEDLAVYYCKQSYNIPTFGGGTKLEIKR
Result: 30.1
